# Study system: CLR/RAMP2 receptor (Homo sapiens, UniProt O60895+Q16602)
# Sequence (Q16602 23-461): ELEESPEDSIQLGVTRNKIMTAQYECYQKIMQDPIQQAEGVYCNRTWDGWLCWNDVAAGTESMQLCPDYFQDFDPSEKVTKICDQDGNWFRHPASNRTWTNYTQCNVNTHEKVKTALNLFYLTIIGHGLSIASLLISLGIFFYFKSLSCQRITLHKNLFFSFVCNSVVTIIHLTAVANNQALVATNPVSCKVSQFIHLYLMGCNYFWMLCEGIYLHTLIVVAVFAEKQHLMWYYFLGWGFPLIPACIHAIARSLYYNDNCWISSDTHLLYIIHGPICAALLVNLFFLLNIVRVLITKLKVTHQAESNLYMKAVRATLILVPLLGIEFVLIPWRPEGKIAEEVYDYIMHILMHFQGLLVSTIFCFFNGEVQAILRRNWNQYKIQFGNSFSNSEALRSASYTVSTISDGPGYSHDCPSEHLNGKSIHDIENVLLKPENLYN
# Sequence (O60895 43-175): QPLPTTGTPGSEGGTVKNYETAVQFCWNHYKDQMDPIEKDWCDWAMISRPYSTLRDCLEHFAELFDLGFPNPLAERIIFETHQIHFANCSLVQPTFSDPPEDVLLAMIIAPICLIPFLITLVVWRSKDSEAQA
# Experimental protocol: CLR/RAMP2 arrestin assay, antagonist mode (ADM-stimulated)
# Assay type: cell-based
Quantity name: CLR/RAMP2 Max Activity % of positive control (antagonist)

Request: Would you please give the reported CLR/RAMP2 Max Activity % of positive control (antagonist) of PEG5000-K[PAL]VQKLAHQIYQFTDKDSAPVDPSSPHSY-NH2 [SEQ ID NO: 192] with CLR/RAMP2 receptor (Homo sapiens, UniProt O60895+Q16602)?
Result: 104 % of positive control

***
Request: Please report the measured CLR/RAMP2 Max Activity % of positive control (antagonist) for Pal-KVQKLNFVPTNVGSKAF-NH2 [SEQ ID NO: 142] tested on CLR/RAMP2 receptor (Homo sapiens, UniProt O60895+Q16602).
Result: 80 % of positive control

Request: Quote CLR/RAMP2 receptor (Homo sapiens, UniProt O60895+Q16602) CLR/RAMP2 Max Activity % of positive control (antagonist) for entry PEG20,000-K[PAL]VQKLAHQIYQFTDKDSAPVDPSSPHSY-NH2 [SEQ ID NO: 190] .
Result: 51 % of positive control

Request: Look up and report measured CLR/RAMP2 Max Activity % of positive control (antagonist) (CLR/RAMP2 receptor (Homo sapiens, UniProt O60895+Q16602)) for the following substance: Ace-YNWNSFGLRF-miniPEG-K(PAL)VQKLAHQIYQFTDKDVAPRSKISPQGY-NH2 [SEQ ID NO: 148]
Result: 97 % of positive control

====

# Study system: CLR/RAMP1 receptor (Homo sapiens, UniProt O60894+Q16602)
# Sequence (O60894 27-148, one chain of several): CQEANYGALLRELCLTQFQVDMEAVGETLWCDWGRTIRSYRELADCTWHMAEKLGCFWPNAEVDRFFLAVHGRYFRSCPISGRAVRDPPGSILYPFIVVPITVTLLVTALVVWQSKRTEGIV
# Experimental protocol: CLR/RAMP1 cAMP receptor-activation assay (agonist mode);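 note: Dose–response over 10 threefold dilutions from 1.0 µM, run in duplicate, luminescent cAMP detection (RLU), activity scaled between vehicle control (0%) and maximal control (100%)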
# Type: cell-based
# Condition details: agonist mode; positive control β-CGRP
Quantity name: CLR/RAMP1 Max Activity % of positive control

Request: Answer with the recorded CLR/RAMP1 Max Activity % of positive control of Ace-RPKPQQFFGLM-miniPEG-K(PAL)GCRFGTCTVQKLAHQIYQFTDKDSAPVDPSSPHSY-NH2 [SEQ ID NO: 147] only.
Result: 109 % of positive control

Request: Quickly give me recorded CLR/RAMP1 Max Activity % of positive control for miniPEG-TK(Pal)KTLRTGCRFGTCTVQKLAHQIYQFTDKDKDNVAPVDPSSPHSY-NH2 [SEQ ID NO: 42]
Result: 56 % of positive control

Request: Determine its reported CLR/RAMP1 Max Activity % of positive control: miniPEG-K(PAL)GCRFGTC(D-Thr)VQKLAHQIYQFTDKDVAPRSKISPQGY-NH2 [SEQ ID NO: 210]
Result: 77 % of positive control

Request: Look up CLR/RAMP1 Max Activity % of positive control of miniPEG-K(PAL)GCRFGTCTVQKLAHQIYQFTDKDVAPRSKISP(D-Gln)GY-NH2 [SEQ ID NO: 214] and report it.
Result: 112 % of positive control

Request: Find the measured CLR/RAMP1 Max Activity % of positive control of miniPEG-K(PAL)GCRFGTCTVQKLAHQIYQFTDKDKDNVAPRSKISPQGY-NH2 [SEQ ID NO: 69] and report it.
Result: 70 % of positive control

Request: Specify reported CLR/RAMP1 Max Activity % of positive control for the substance shown: Ace-PEG3-K(Hexadecanoyl-PEG3-isoGlu)GCRFGTCTVQKLAHQIYQFTDKDKDNVAPRSKISPQGY-NH2 [SEQ ID NO: 154]
Result: 83 % of positive control

Next, consider the following substance.
Request: Give the reported value of CLR/RAMP1 Max Activity % of positive control for this record: Ace-PEG3-K([19-carboxy-nonadecanoyl]-PEG3-isoGlu)GCRFGTCTVQKLAHQIYQFTDKDKDNVAPRSKISPQGY-NH2 [SEQ ID NO: 156]
Result: 88 % of positive control
